species: Rattus norvegicus; experiment: DrugMatrix - Regimen: Daily Repeat; format: toxicity, organism-based, Sprague-Dawley; set-up: regimen Daily Repeat, gender Male, age 6-8 weeks; details: in vivo, po, 1500 mg/kg, 120 h, tissue Blood, route oral GAVAGE, dose level High, time 5 day, vehicle .5 % CMC
Assay Readout: BASOPHIL (%)
Provide only the numeric value, understood in %.

Request: Supply BASOPHIL value. Item: COC(=O)c1ccc(O)cc1
Response: 0

Request: Read the entry O=C1CCc2cc(OCCCCc3nnnn3C3CCCCC3)ccc2N1 and write its reported BASOPHIL.
Response: 0.83

Request: State, in one line, measured BASOPHIL of CCOC(=O)[C@H](CCc1ccccc1)N[C@@H](C)C(=O)N1[C@H](C(=O)O)C[C@@H]2CCC[C@@H]21
Response: 0

Request: Read off the recorded BASOPHIL for NS(=O)(=O)c1cc2c(cc1Cl)NCNS2(=O)=O [HYDROCHLOROTHIAZIDE]
Response: 0

----------
Record form. Attribute: URIC ACID. Fill in for each entry.
organism: Rattus norvegicus; test: DrugMatrix - Regimen: Daily Repeat; type: toxicity, organism-based, Sprague-Dawley; parameters: regimen Daily Repeat, gender Male, age 6-8 weeks; details: in vivo, po, 10 mg/kg, 72 h, tissue Plasma, route oral GAVAGE, dose level Low, time 3 day, vehicle .5 % CMC
Record the value in mg/dL, omitting the unit from your answer.

Request: Identify measured URIC ACID corresponding to O=C1CN=C(c2ccccc2)c2cc([N+](=O)[O-])ccc2N1 [NITRAZEPAM]
Response: 0.9

Request: Give recorded URIC ACID. CC(=O)O[C@]1(C(C)=O)CC[C@H]2[C@@H]3C=C(Cl)C4=CC(=O)CC[C@]4(C)[C@H]3CC[C@@]21C [CHLORMADINONE ACETATE]
Response: 0.67

Request: Provide one value: measured URIC ACID of COc1c(C)c2c(c(O)c1C/C=C(\C)CCC(=O)OCCN1CCOCC1)C(=O)OC2 [MYCOPHENOLATE MOFETIL]
Response: 1.57

Request: Supply reported URIC ACID belonging to this compound: NS(=O)(=O)c1cc2c(cc1Cl)NCNS2(=O)=O [HYDROCHLOROTHIAZIDE]
Response: 2.5

----------
Give MEAN CORPUSCULAR VOLUME for every item shown.
species: Rattus norvegicus; assay: DrugMatrix - Regimen: Daily Repeat; format: toxicity, organism-based, Sprague-Dawley; parameters: regimen Daily Repeat, gender Male, age 6-8 weeks; conditions: in vivo, po, 0 mg/kg, 72 h, tissue Blood, route oral GAVAGE, dose level Control, time 3 day, […]
API: value field is a number in fL; no unit string.

Request: Give the reported MEAN CORPUSCULAR VOLUME for this molecule. COC1=CC(=O)C[C@@H](C)[C@]12Oc1c(Cl)c(OC)cc(OC)c1C2=O [GRISEOFULVIN]
Response: 61.23

Request: Consider the molecule CCCCCCCCCc1ccc(O)cc1 [4-NONYLPHENOL] . State its measured MEAN CORPUSCULAR VOLUME.
Response: 62.73

Request: Return reported MEAN CORPUSCULAR VOLUME. Input molecule: c1ccc2[nH]c(-c3cscn3)nc2c1 [THIABENDAZOLE]
Response: 62.38

Request: Give the reported value of MEAN CORPUSCULAR VOLUME for this record: COc1ccc2c(c1)c(CC(=O)OCC(=O)O)c(C)n2C(=O)c1ccc(Cl)cc1 [ACEMETACIN]
Response: 62.52

Request: Please supply the value of reported MEAN CORPUSCULAR VOLUME for the item CSc1ccc2c(c1)N(CCC1CCCCN1C)c1ccccc1S2 (centres undefined) [THIORIDAZINE]
Response: 62.88

Request: Return reported MEAN CORPUSCULAR VOLUME. Input molecule: CC(=O)[C@H]1CC[C@H]2[C@@H]3CCC4=CC(=O)CC[C@]4(C)[C@H]3CC[C@]12C [PROGESTERONE]
Response: 63.3

Request: Provide measured MEAN CORPUSCULAR VOLUME value, entry: COCc1c(C(C)C)nc(C(C)C)c(/C=C/[C@@H](O)C[C@@H](O)CC(=O)O)c1-c1ccc(F)cc1 [CERIVASTATIN]
Response: 62.73

Request: Please look at this molecule and report its MEAN CORPUSCULAR VOLUME: C=CCN [ALLYLAMINE]
Response: 68.57

Request: Entry CC(C)n1c(/C=C/C(O)CC(O)CC(=O)O)c(-c2ccc(F)cc2)c2ccccc21 (centres undefined) [FLUVASTATIN] needs its MEAN CORPUSCULAR VOLUME filled in; supply it.
Response: 60.18
